Data provenance is patent US9333197B2.

Assay: Rat pharmacokinetics, 1 mg/kg IV infusion and 5.0 mg/kg PO
Type: in vivo
Conditions: Sprague-Dawley, rat, plasma; male SD rats; read-out: t1/2 in rats (converted)
Readout type: half-life (h)
Give the value in h but do not write h after it.

Asked: For the molecule Cc1ccc(C(=O)Nc2cccc(-c3nncn3C3CC3)n2)cc1-n1cnc(C2CC2)c1 [Compound B] , give its measured half-life value.
Given back: 1.3

###

Assay: Rat pharmacokinetics, 1 mg/kg IV infusion and 5.0 mg/kg PO
Assay type: in vivo
Details: Sprague-Dawley, rat, plasma; 1 mg/kg IV infusion, male SD rats; read-out: CL in rats (converted)
Readout type: clearance (mL/min/kg)
Give the value in mL/min/kg but do not write mL/min/kg after it.

- Molecule: "CC(C)n1cnnc1-c1cccc(NC(=O)c2cccc(-n3cnc(C4CC4)c3)c2)n1"
  U: "mL/min/kg"
  clearance: 5

// switching to the query compound
Asked: For the compound Cc1ccc(C(=O)Nc2cccc(-c3nncn3C3CC3)n2)cc1-n1cnc(C2CC2)c1 , give its measured clearance value.
Given back: 6.5
